assay: Extraction of amino acid ester from aqueous mineral acid salt solution into 1,2-dichloroethane at constant pH (Table 1); settings: pH 7.5, 20-25 °C, 1,2-dichloroethane
Ester in aqueous layer, percent remaining: recorded values
Field format: number, assumed %, no unit text.

>  <compound>
COC(=O)[C@@H](N)CO.Cl [Methyl L-serinate hydrochloride]

>  <reported.value>
5

$$$$
>  <compound>
CCOC(=O)[C@@H](N)Cc1ccccc1.Cl [Ethyl L-phenylalaninate hydrochloride]

>  <reported.value>
2

$$$$
>  <compound>
COC(=O)[C@@H](N)CCCCN.Cl [Methyl L-lysinate hydrochloride]

>  <reported.value>
9

$$$$
>  <compound>
Cl.N[C@@H](Cc1ccccc1)C(=O)Oc1ccccc1 [Phenyl L-phenylalaninate hydrochloride]

>  <reported.value>
1

$$$$
>  <compound>
COC(=O)CCCN.Cl [Methyl γ-aminobutyrate hydrochloride]

>  <reported.value>
4

$$$$
>  <compound>
Cl.N[C@@H](Cc1ccccc1)C(=O)OCc1ccccc1 [Benzyl L-phenylalaninate hydrochloride]

>  <reported.value>
1

$$$$

Attention now shifts to the item below.
Query: Form field: reported Ester in aqueous layer, percent remaining of CCOC(=O)c1ccccc1N.Cl [Ethyl o-aminobenzoate hydrochloride]
Reply: 2

---

experiment: Extraction of amino acid ester from aqueous mineral acid salt solution into 1,2-dichloroethane at constant pH (Table 1); details: pH 7.5, 20-25 °C, 1,2-dichloroethane
Ester in aqueous layer, percent hydrolysis values by entry
Report as a plain number; the unit % is understood.

For orientation, consider the following solved cases.
>  <molecule>
CCOC(=O)c1ccccc1N.Cl [Ethyl o-aminobenzoate hydrochloride]

>  <units.symbol>
%

>  <reported.value>
1

$$$$
>  <molecule>
Cl.N[C@@H](Cc1ccccc1)C(=O)Oc1ccccc1 [Phenyl L-phenylalaninate hydrochloride]

>  <units.symbol>
%

>  <reported.value>
2

$$$$
>  <molecule>
Cl.N[C@@H](Cc1ccccc1)C(=O)OCc1ccccc1 [Benzyl L-phenylalaninate hydrochloride]

>  <units.symbol>
%

>  <reported.value>
0

$$$$

Query: Any idea what its Ester in aqueous layer, percent hydrolysis is? The molecule is COC(=O)[C@@H](N)CCCCN.Cl [Methyl L-lysinate hydrochloride]
Reply: 0

Query: Which Ester in aqueous layer, percent hydrolysis reading was recorded for the molecule CCOC(=O)[C@@H](N)Cc1ccccc1.Cl [Ethyl L-phenylalaninate hydrochloride] ?
Reply: 0

Query: Ester in aqueous layer, percent hydrolysis; subject: COC(=O)[C@@H](N)CO.Cl [Methyl L-serinate hydrochloride]
Reply: 0

Query: Field request: Ester in aqueous layer, percent hydrolysis | item: COC(=O)CCCN.Cl [Methyl γ-aminobutyrate hydrochloride]
Reply: 0

---

assay: Extraction of amino acid ester from aqueous mineral acid salt solution into 1,2-dichloroethane at constant pH (Table 1); conditions: pH 6.5, 20-25 °C, 1,2-dichloroethane
Entries annotated with measured Ester in aqueous layer, percent remaining
Quick reminder: number only, in %, skip the unit.

Solved cases (6 shown):
>  <molecule>
Cl.N[C@@H](Cc1ccccc1)C(=O)OCc1ccccc1 [Benzyl L-phenylalaninate hydrochloride]

>  <reported.value>
6

$$$$
>  <molecule>
COC(=O)[C@@H](N)CO.Cl [Methyl L-serinate hydrochloride]

>  <reported.value>
14

$$$$
>  <molecule>
COC(=O)[C@@H](N)CCCCN.Cl [Methyl L-lysinate hydrochloride]

>  <reported.value>
18

$$$$
>  <molecule>
CCOC(=O)c1ccccc1N.Cl [Ethyl o-aminobenzoate hydrochloride]

>  <reported.value>
6

$$$$
>  <molecule>
Cl.N[C@@H](Cc1ccccc1)C(=O)Oc1ccccc1 [Phenyl L-phenylalaninate hydrochloride]

>  <reported.value>
6

$$$$
>  <molecule>
COC(=O)CCCN.Cl [Methyl γ-aminobutyrate hydrochloride]

>  <reported.value>
11

$$$$

Attention now shifts to the item below.
Query: Dear colleague, I am looking for the recorded Ester in aqueous layer, percent remaining of the following molecule: CCOC(=O)[C@@H](N)Cc1ccccc1.Cl [Ethyl L-phenylalaninate hydrochloride]
Reply: 8

---

# key: entry, value: Percent extraction of ester in organic layer
assay: Extraction of amino acid ester from aqueous mineral acid salt solution into 1,2-dichloroethane at constant pH (Table 1); settings: pH 8.5, 20-25 °C, 1,2-dichloroethane
Give the value in % but do not write % after it.

>  <compound>
COC(=O)[C@@H](N)CO.Cl [Methyl L-serinate hydrochloride]

>  <units.symbol>
%

>  <reported.value>
94

$$$$

Query: What does the record list as Percent extraction of ester in organic layer for CCOC(=O)[C@@H](N)Cc1ccccc1.Cl [Ethyl L-phenylalaninate hydrochloride] ?
Reply: 96

Query: Fill in: Percent extraction of ester in organic layer of Cl.N[C@@H](Cc1ccccc1)C(=O)OCc1ccccc1 [Benzyl L-phenylalaninate hydrochloride] is ___
Reply: 97

Query: // lookup Percent extraction of ester in organic layer for CCOC(=O)c1ccccc1N.Cl [Ethyl o-aminobenzoate hydrochloride]
Reply: 96

---

assay: Extraction of amino acid ester from aqueous mineral acid salt solution into 1,2-dichloroethane at constant pH (Table 1); settings: pH 8.5, 20-25 °C, 1,2-dichloroethane
quantity.measured: Ester in aqueous layer, percent remaining (%)
API: value field is a number in %; no unit string.

Solved cases (5 shown):
>  <compound>
CCOC(=O)c1ccccc1N.Cl [Ethyl o-aminobenzoate hydrochloride]

>  <reported.value>
1

$$$$
>  <compound>
Cl.N[C@@H](Cc1ccccc1)C(=O)Oc1ccccc1 [Phenyl L-phenylalaninate hydrochloride]

>  <reported.value>
1

$$$$
>  <compound>
CCOC(=O)[C@@H](N)Cc1ccccc1.Cl [Ethyl L-phenylalaninate hydrochloride]

>  <reported.value>
1

$$$$
>  <compound>
Cl.N[C@@H](Cc1ccccc1)C(=O)OCc1ccccc1 [Benzyl L-phenylalaninate hydrochloride]

>  <reported.value>
1

$$$$
>  <compound>
COC(=O)CCCN.Cl [Methyl γ-aminobutyrate hydrochloride]

>  <reported.value>
2

$$$$

Query: Using the record for COC(=O)[C@@H](N)CCCCN.Cl [Methyl L-lysinate hydrochloride] , report its Ester in aqueous layer, percent remaining.
Reply: 3

Query: Requested read-out: Ester in aqueous layer, percent remaining. Entry: COC(=O)[C@@H](N)CO.Cl [Methyl L-serinate hydrochloride]
Reply: 2

---

experiment: Extraction of amino acid ester from aqueous mineral acid salt solution into 1,2-dichloroethane at constant pH (Table 1); details: pH 8.5, 20-25 °C, 1,2-dichloroethane
Quick list: Ester in aqueous layer, percent hydrolysis per entry.
Form entry: value (%) — number only.

Before answering, review these 5 worked examples.
>  <molecule>
CCOC(=O)c1ccccc1N.Cl [Ethyl o-aminobenzoate hydrochloride]

>  <units.symbol>
%

>  <reported.value>
3

$$$$
>  <molecule>
COC(=O)CCCN.Cl [Methyl γ-aminobutyrate hydrochloride]

>  <units.symbol>
%

>  <reported.value>
3

$$$$
>  <molecule>
COC(=O)[C@@H](N)CCCCN.Cl [Methyl L-lysinate hydrochloride]

>  <units.symbol>
%

>  <reported.value>
3

$$$$
>  <molecule>
COC(=O)[C@@H](N)CO.Cl [Methyl L-serinate hydrochloride]

>  <units.symbol>
%

>  <reported.value>
4

$$$$
>  <molecule>
CCOC(=O)[C@@H](N)Cc1ccccc1.Cl [Ethyl L-phenylalaninate hydrochloride]

>  <units.symbol>
%

>  <reported.value>
3

$$$$

Let's switch to this molecule now.
Query: Consider the molecule shown here: Cl.N[C@@H](Cc1ccccc1)C(=O)Oc1ccccc1 [Phenyl L-phenylalaninate hydrochloride] What is its recorded Ester in aqueous layer, percent hydrolysis?
Reply: 7

---

Examples of compounds with documented Percent extraction of ester in organic layer follow.
assay: Extraction of amino acid ester from aqueous mineral acid salt solution into 1,2-dichloroethane at constant pH (Table 1); conditions: pH 7.5, 20-25 °C, 1,2-dichloroethane
I only need the number, in %, no unit after it.

Past entries and their recorded results:
>  <compound>
COC(=O)[C@@H](N)CCCCN.Cl [Methyl L-lysinate hydrochloride]

>  <reported.value>
91

$$$$
>  <compound>
CCOC(=O)[C@@H](N)Cc1ccccc1.Cl [Ethyl L-phenylalaninate hydrochloride]

>  <reported.value>
98

$$$$

Shift focus to the following entry.
Query: Could you share which Percent extraction of ester in organic layer value was measured for COC(=O)CCCN.Cl [Methyl γ-aminobutyrate hydrochloride] ?
Reply: 96

---

Experiment: Extraction of amino acid ester from aqueous mineral acid salt solution into 1,2-dichloroethane at constant pH (Table 1)
Conditions: pH 8.5, 20-25 °C, 1,2-dichloroethane
Protocol: 0.1 mole of a mineral acid salt of an amino acid ester, shown in Table 1 was dissolved or suspended in 30 g of water. Thereto was added 60 g of 1,2-dichloroethane. […] Then, there were measured percent extraction of fed amino acid ester in organic layer, percent remaining of said ester in aqueous layer, and percent hydrolysis of said ester in aqueous layer (the hydrolyzed ester remains in the aqueous layer as an amino acid).
quantity.measured: Percent extraction of ester in organic layer (%)
Give just the number in %; leave the unit off.

Solved cases (2 shown):
>  <molecule>
Cl.N[C@@H](Cc1ccccc1)C(=O)Oc1ccccc1 [Phenyl L-phenylalaninate hydrochloride]

>  <reported.value>
92

$$$$
>  <molecule>
COC(=O)[C@@H](N)CCCCN.Cl [Methyl L-lysinate hydrochloride]

>  <reported.value>
94

$$$$

The record that follows has no Percent extraction of ester in organic layer shown yet.
Query: Please report the recorded Percent extraction of ester in organic layer for COC(=O)CCCN.Cl [Methyl γ-aminobutyrate hydrochloride] .
Reply: 95
